System: Alpha smooth muscle actin (α-SMA) levels
protocol_details: α-SMA levels by Western blot in TGF-β-treated normal human lung fibroblasts (headed Cell Proliferation Assay)
Format: cell-based
recorded_conditions: Table 4; compound 20 μM; 10 ng/mL TGF-β, 24 h
# Lookup of reported Relative α-SMA 20 μM keyed by entry
Reply with the value as a number alone.

For orientation, consider the following solved cases.
Exercise: What value of Relative α-SMA 20 μM has been reported for the following molecule? CCCCNC(=O)c1cc(NS(=O)(=O)c2c(C(C)C)cc(C(C)C)cc2C(C)C)cc(C(F)(F)F)c1
Key: 0.46

Exercise: Similarly, CC(C)c1cc(C(C)C)c(S(=O)(=O)Nc2cc(N)cc(C(F)(F)F)c2)c(C(C)C)c1 ?
Key: 0.05

In the following, a different molecule is considered.
Exercise: Request the reported Relative α-SMA 20 μM associated with CC(C)c1cc(C(C)C)c(S(=O)(=O)Nc2cc(NC(=O)OC(C)(C)C)cc(C(F)(F)F)c2)c(C(C)C)c1
Key: 0.21

====

Test system: Alpha smooth muscle actin (α-SMA) levels
protocol_details: α-SMA levels by Western blot in TGF-β-treated normal human lung fibroblasts (headed Cell Proliferation Assay)
Assay type: cell-based
recorded_conditions: Table 4; compound 20 μM; 10 ng/mL TGF-β, 24 h
measured_property: Relative α-SMA 20 μM
Lab note: record the figure alone, no unit after it.

Worked examples, 7 compounds total:
Exercise: Relative α-SMA 20 μM lookup needed for CC(=O)Nc1cc(NS(=O)(=O)c2c(C(C)C)cc(C(C)C)cc2C(C)C)cc(C(F)(F)F)c1 [A7] , thanks.
Key: 0.33

Exercise: Now the same for Cc1cc(C(C)(C)C)cc(C)c1S(=O)(=O)Nc1cc(O)cc(C(F)(F)F)c1 [A18]
Key: 0.28

Exercise: Another compound: Cc1cc(NS(=O)(=O)c2c(C(C)C)cc(C(C)C)cc2C(C)C)cc(C(F)(F)F)c1 [A1]
Key: 0.37

Exercise: # repeat for COC(=O)c1cc(NS(=O)(=O)c2c(C(C)C)cc(C(C)C)cc2C(C)C)cc(C(F)(F)F)c1 [A2]
Key: 0.23

Exercise: Next compound: CCN(CC)c1cc(NS(=O)(=O)c2c(C(C)C)cc(C(C)C)cc2C(C)C)cc(C(F)(F)F)c1 [A8]
Key: 0.33

Exercise: Consider next the compound CC(C)c1cc(C(C)C)c(S(=O)(=O)Nc2cc(C(=O)O)cc(C(F)(F)F)c2)c(C(C)C)c1 [A3] in the same way.
Key: 0.73

Exercise: Next up: Cc1cc(C(C)(C)C)cc(C)c1S(=O)(=O)Nc1cc(C2CCNCC2)cc(C(F)(F)F)c1 [A22]
Key: 0.12

Switching to the query record.
Exercise: So what's the measured Relative α-SMA 20 μM for this one? Cc1cc(C(C)(C)C)cc(C)c1S(=O)(=O)Nc1cc(OCCCC#N)cc(C(F)(F)F)c1 [A9]
Key: 0.78

Origin of values: patent US20230201144A1
